Values were extracted from patent US20040229931A1.

target: Tubulin (Sus scrofa, UniProt P02550+P02554); construct: Tubulin is purified from pig brains according to published methods; from tissue; host or cells: pig brain; experiment: Inhibition of polymerization of tubulin (turbidimetry); format: biochemical; settings: pig brain tubulin 10 μM, turbidity at 350 nm, 37° C.
Sequence (P02550 whole entry): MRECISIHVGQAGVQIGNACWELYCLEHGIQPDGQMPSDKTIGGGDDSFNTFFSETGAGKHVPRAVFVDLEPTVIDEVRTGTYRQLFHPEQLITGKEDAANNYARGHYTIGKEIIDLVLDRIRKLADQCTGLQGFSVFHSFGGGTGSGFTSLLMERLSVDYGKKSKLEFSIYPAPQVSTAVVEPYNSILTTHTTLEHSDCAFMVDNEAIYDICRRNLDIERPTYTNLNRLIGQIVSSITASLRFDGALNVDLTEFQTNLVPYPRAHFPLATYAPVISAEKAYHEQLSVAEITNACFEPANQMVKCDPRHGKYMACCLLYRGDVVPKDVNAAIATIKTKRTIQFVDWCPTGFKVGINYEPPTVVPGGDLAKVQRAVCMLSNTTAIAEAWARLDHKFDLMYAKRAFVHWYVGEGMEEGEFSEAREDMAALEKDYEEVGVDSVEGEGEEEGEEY
Sequence (P02554 whole entry): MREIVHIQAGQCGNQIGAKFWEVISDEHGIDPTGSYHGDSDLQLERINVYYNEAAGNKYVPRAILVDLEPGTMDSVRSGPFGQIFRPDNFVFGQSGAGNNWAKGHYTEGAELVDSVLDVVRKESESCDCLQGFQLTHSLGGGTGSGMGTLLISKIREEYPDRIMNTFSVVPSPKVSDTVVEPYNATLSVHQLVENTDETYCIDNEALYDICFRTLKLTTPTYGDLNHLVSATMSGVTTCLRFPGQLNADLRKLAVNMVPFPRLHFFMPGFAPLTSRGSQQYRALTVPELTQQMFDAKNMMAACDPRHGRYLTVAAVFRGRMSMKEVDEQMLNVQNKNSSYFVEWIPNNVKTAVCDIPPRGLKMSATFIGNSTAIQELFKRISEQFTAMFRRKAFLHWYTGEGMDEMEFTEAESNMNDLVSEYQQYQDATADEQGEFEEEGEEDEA
pIC50: −log10 of the molar value.
endpoint.label: pIC50

[
  {
    "molecule": "COc1cc(C(=O)/C(C)=C/c2ccc3c(ccn3CCO)c2)cc(OC)c1OC [Example 1]",
    "pIC50": 6.10
  },
  {
    "molecule": "COc1ccc(OC)c(C(=O)/C(C)=C/c2ccc3c(ccn3CCO)c2)c1 [Example 3]",
    "pIC50": 6.08
  },
  {
    "molecule": "COc1cc(C(=O)/C(C)=C/c2ccc3c(ccn3CCO)c2)cc2c1OCO2 [Example 2]",
    "pIC50": 6.22
  }
]

---

biological target: Herg receptors (Homo sapiens)
Sequence (Q12809 whole entry): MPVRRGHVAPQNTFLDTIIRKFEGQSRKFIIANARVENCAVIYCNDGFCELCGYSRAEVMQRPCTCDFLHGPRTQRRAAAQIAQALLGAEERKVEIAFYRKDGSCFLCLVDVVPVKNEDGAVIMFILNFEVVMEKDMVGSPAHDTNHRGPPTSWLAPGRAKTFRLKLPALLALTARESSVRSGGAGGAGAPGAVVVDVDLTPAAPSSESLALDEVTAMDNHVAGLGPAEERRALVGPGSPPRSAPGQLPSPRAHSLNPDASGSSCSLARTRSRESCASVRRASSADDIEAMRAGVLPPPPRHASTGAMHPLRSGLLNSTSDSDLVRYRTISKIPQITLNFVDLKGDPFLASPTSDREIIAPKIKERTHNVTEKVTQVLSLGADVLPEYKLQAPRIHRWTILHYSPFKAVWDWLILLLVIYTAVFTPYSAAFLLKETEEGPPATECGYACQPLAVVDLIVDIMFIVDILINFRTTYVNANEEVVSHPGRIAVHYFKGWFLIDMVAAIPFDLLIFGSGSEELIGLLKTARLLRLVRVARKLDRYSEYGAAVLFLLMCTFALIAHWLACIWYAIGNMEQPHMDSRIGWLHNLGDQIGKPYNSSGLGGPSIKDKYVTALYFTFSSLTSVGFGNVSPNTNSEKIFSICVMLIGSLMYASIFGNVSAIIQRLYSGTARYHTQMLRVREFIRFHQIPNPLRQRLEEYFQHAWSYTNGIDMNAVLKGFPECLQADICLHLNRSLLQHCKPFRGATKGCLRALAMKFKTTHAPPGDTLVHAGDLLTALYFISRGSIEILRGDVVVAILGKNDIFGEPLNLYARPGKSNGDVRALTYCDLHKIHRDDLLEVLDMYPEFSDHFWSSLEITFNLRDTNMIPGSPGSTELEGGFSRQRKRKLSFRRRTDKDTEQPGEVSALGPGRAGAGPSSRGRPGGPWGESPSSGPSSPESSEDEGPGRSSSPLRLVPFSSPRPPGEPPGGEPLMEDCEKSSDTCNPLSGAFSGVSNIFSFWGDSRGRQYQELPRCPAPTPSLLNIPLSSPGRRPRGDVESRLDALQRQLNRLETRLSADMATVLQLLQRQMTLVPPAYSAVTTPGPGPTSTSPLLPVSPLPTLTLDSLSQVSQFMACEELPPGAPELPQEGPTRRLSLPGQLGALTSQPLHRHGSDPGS
endpoint.label: IC50

-- ask If you can, please state the reported IC50 value of `COc1cc(C(=O)/C(C)=C/c2ccc3c(ccn3CCO)c2)cc2c1OCO2` .
-- reply > 30 µM
